Biological target: α-thrombin (Homo sapiens, UniProt P00734)
Construct: α-Thrombin is the active form of the plasma serine protease zymogen, prothrombin; purchased Enzyme Research Labs (South Bend, Ind.)
Assay: Confirmatory binding assay in column chromatographic format, peptides synthesized on A-Totda-Toyopearl
Conditions: 50 μg α-thrombin applied; integration of A280
Ends that are not written are not given here.
Quantity: Absorbance, 280 nm 1M NaCl Eluate

{"Substance": "PFPYAW (not fully specified (C-terminus)) [peptide synthesized on A-Totda-Toyopearl resin]", "Result": "np"}
{"Substance": "LTPFAV (not fully specified (C-terminus)) [peptide synthesized on A-Totda-Toyopearl resin]", "Result": "np"}
{"Substance": "YTPFAV (not fully specified (C-terminus)) [peptide synthesized on A-Totda-Toyopearl resin]", "Result": "np"}
{"Substance": "ERPYHG (not fully specified (C-terminus)) [peptide synthesized on A-Totda-Toyopearl resin]", "Result": 0.00}

* * *

Molecular target: α-thrombin (Homo sapiens, UniProt P00734)
Construct: α-Thrombin is the active form of the plasma serine protease zymogen, prothrombin; purchased Enzyme Research Labs (South Bend, Ind.)
Assay: Confirmatory binding assay in column chromatographic format, peptides synthesized on A-Totda-Toyopearl
Conditions: summary of Table 2
Ends that are not written are not given here.
Quantity: binding of thrombin to peptide resin (in words)

{"Substance": "PFPYGW (not fully specified (C-terminus)) [peptide synthesized on A-Totda-Toyopearl resin]", "Result": "bound thrombin"}
{"Substance": "PFAPTL", "Result": "not"}
{"Substance": "PFPYAW (not fully specified (C-terminus)) [peptide synthesized on A-Totda-Toyopearl resin]", "Result": "bound thrombin"}

* * *

Target: α-thrombin (Homo sapiens)
Construct: α-Thrombin is the active form of the plasma serine protease zymogen, prothrombin; purchased Enzyme Research Labs (South Bend, Ind.)
Experiment: Confirmatory binding assay in column chromatographic format, peptides synthesized on A-Totda-Toyopearl
Conditions: 50 μg α-thrombin applied; integration of A280
Ends that are not written are not given here.
Quantity: Absorbance, 280 nm 1M NaCl Eluate

{"Substance": "VTPFAV (not fully specified (C-terminus)) [peptide synthesized on A-Totda-Toyopearl resin]", "Assay target": "α-thrombin (Homo sapiens)", "Absorbance, 280 nm 1M NaCl Eluate": "np"}
{"Substance": "RQLWQSH [RQLWGSH, variant of QLWGSH with added amino-terminal arginine, on A-Totda-Toyopearl resin]", "Assay target": "α-thrombin (Homo sapiens)", "Absorbance, 280 nm 1M NaCl Eluate": "np"}
{"Substance": "VFPYVW (not fully specified (C-terminus)) [peptide synthesized on A-Totda-Toyopearl resin]", "Assay target": "α-thrombin (Homo sapiens)", "Absorbance, 280 nm 1M NaCl Eluate": "np"}
{"Substance": "FEPANP (not fully specified (C-terminus)) [peptide synthesized on A-Totda-Toyopearl resin]", "Assay target": "α-thrombin (Homo sapiens)", "Absorbance, 280 nm 1M NaCl Eluate": 0.00}
{"Substance": "LFAPTL", "Assay target": "α-thrombin (Homo sapiens)", "Absorbance, 280 nm 1M NaCl Eluate": "np"}
{"Substance": "ERPYKG (not fully specified (C-terminus)) [peptide synthesized on A-Totda-Toyopearl resin]", "Assay target": "α-thrombin (Homo sapiens)", "Absorbance, 280 nm 1M NaCl Eluate": 0.23}
{"Substance": "PFAPTL", "Assay target": "α-thrombin (Homo sapiens)", "Absorbance, 280 nm 1M NaCl Eluate": "np"}
{"Substance": "HQLWGSH", "Assay target": "α-thrombin (Homo sapiens)", "Absorbance, 280 nm 1M NaCl Eluate": "np"}
{"Substance": "GFRNGP [GERNGP]", "Assay target": "α-thrombin (Homo sapiens)", "Absorbance, 280 nm 1M NaCl Eluate": 0.00}
{"Substance": "PFPYGW (not fully specified (C-terminus)) [peptide synthesized on A-Totda-Toyopearl resin]", "Assay target": "α-thrombin (Homo sapiens)", "Absorbance, 280 nm 1M NaCl Eluate": "np"}

Req: Value lookup for Absorbance, 280 nm 1M NaCl Eluate; key = GFRKGP (not fully specified (C-terminus)) [peptide synthesized on A-Totda-Toyopearl resin]
Resp: 0.12

Req: What Absorbance, 280 nm 1M NaCl Eluate value was documented for this substance, VFPYGW (not fully specified (C-terminus)) [peptide synthesized on A-Totda-Toyopearl resin] ?
Resp: np

Req: Any idea what Absorbance, 280 nm 1M NaCl Eluate was measured for SVRPFL (not fully specified (C-terminus)) [peptide synthesized on A-Totda-Toyopearl resin] ?
Resp: np

Req: Consider the substance shown here: VFPYAW (not fully specified (C-terminus)) [peptide synthesized on A-Totda-Toyopearl resin] What is its recorded Absorbance, 280 nm 1M NaCl Eluate?
Resp: 0.16

Req: // returns reported Absorbance, 280 nm 1M NaCl Eluate for input PFPYVW (not fully specified (C-terminus)) [peptide synthesized on A-Totda-Toyopearl resin]
Resp: np

* * *

Biological target: α-thrombin (Homo sapiens)
Construct: α-Thrombin is the active form of the plasma serine protease zymogen, prothrombin; purchased Enzyme Research Labs (South Bend, Ind.)
Test: Confirmatory binding assay in column chromatographic format, peptides synthesized on A-Totda-Toyopearl
Details: summary of Table 2
Ends that are not written are not given here.
Quantity: binding of thrombin to peptide resin (in words)

Example cases with answers are listed next.
{"Substance": "ERPYHG (not fully specified (C-terminus)) [peptide synthesized on A-Totda-Toyopearl resin]", "Assay target": "α-thrombin (Homo sapiens)", "Result": "not"}
{"Substance": "QLWGSH (not fully specified (C-terminus))", "Assay target": "α-thrombin (Homo sapiens)", "Result": "bound thrombin"}
{"Substance": "LFAPTL", "Assay target": "α-thrombin (Homo sapiens)", "Result": "bound thrombin"}
{"Substance": "YTPFAV (not fully specified (C-terminus)) [peptide synthesized on A-Totda-Toyopearl resin]", "Assay target": "α-thrombin (Homo sapiens)", "Result": "bound thrombin"}
{"Substance": "SVRPFL (not fully specified (C-terminus)) [peptide synthesized on A-Totda-Toyopearl resin]", "Assay target": "α-thrombin (Homo sapiens)", "Result": "bound thrombin"}

Req: Could you share what binding of thrombin to peptide resin (in words) was measured for FEPANP (not fully specified (C-terminus)) [peptide synthesized on A-Totda-Toyopearl resin] , tested on α-thrombin (Homo sapiens)?
Resp: bound thrombin

Req: Query for α-thrombin (Homo sapiens): what binding of thrombin to peptide resin (in words) does the record show for VFPYAW (not fully specified (C-terminus)) [peptide synthesized on A-Totda-Toyopearl resin] ?
Resp: bound thrombin

* * *

Molecular target: α-thrombin (Homo sapiens, UniProt P00734)
Construct: α-Thrombin is the active form of the plasma serine protease zymogen, prothrombin; purchased Enzyme Research Labs (South Bend, Ind.)
Test: Confirmatory binding assay in column chromatographic format, peptides synthesized on A-Totda-Toyopearl
Settings: 50 μg α-thrombin applied; integration of A280
Ends that are not written are not given here.
Quantity: Absorbance, 280 nm 2% Acetic Acid

Example entries and their recorded answers appear below.
{"Substance": "PFPYGW (not fully specified (C-terminus)) [peptide synthesized on A-Totda-Toyopearl resin]", "Absorbance, 280 nm 2% Acetic Acid": 0.47}
{"Substance": "FEPANP (not fully specified (C-terminus)) [peptide synthesized on A-Totda-Toyopearl resin]", "Absorbance, 280 nm 2% Acetic Acid": 0.15}
{"Substance": "RQLWQSH [RQLWGSH, variant of QLWGSH with added amino-terminal arginine, on A-Totda-Toyopearl resin]", "Absorbance, 280 nm 2% Acetic Acid": 0.75}

1. HQLWGSH
2. YTPFAV (not fully specified (C-terminus)) [peptide synthesized on A-Totda-Toyopearl resin]
Req: Return label of the item with the larger Absorbance, 280 nm 2% Acetic Acid. Candidates: 1 , 2 . Please reply using the label of the selected record.
Resp: 1

1. GFRNGP [GERNGP]
2. ERPYKG (not fully specified (C-terminus)) [peptide synthesized on A-Totda-Toyopearl resin]
3. VFPYAW (not fully specified (C-terminus)) [peptide synthesized on A-Totda-Toyopearl resin]
4. PFPYVW (not fully specified (C-terminus)) [peptide synthesized on A-Totda-Toyopearl resin]
5. LTPFAV (not fully specified (C-terminus)) [peptide synthesized on A-Totda-Toyopearl resin]
Req: Order the items by recorded Absorbance, 280 nm 2% Acetic Acid; the first position goes to the largest value. # respond with the labels, arranged in the requested order
Resp: 4, 3, 1, 2, 5

P. GFRKGP (not fully specified (C-terminus)) [peptide synthesized on A-Totda-Toyopearl resin]
Q. VFPYGW (not fully specified (C-terminus)) [peptide synthesized on A-Totda-Toyopearl resin]
R. LFAPTL
S. ERPYHG (not fully specified (C-terminus)) [peptide synthesized on A-Totda-Toyopearl resin]
Req: Order the items by recorded Absorbance, 280 nm 2% Acetic Acid; the first position goes to the largest value. Respond with an ordered listing of the labels, as requested.
Resp: Q, P, R, S

1. SVRPFL (not fully specified (C-terminus)) [peptide synthesized on A-Totda-Toyopearl resin]
2. VTPFAV (not fully specified (C-terminus)) [peptide synthesized on A-Totda-Toyopearl resin]
Req: Form field 'greater Absorbance, 280 nm 2% Acetic Acid' accepts 1 or 2 ; which applies? // return label of chosen record
Resp: 1

I. VFPYVW (not fully specified (C-terminus)) [peptide synthesized on A-Totda-Toyopearl resin]
II. PFPYAW (not fully specified (C-terminus)) [peptide synthesized on A-Totda-Toyopearl resin]
Req: Field: lower Absorbance, 280 nm 2% Acetic Acid | Options: I / II Record your answer as the label of the chosen record.
Resp: II
(II: 0.50, I: 0.81)
